Experiment: yeast display, Sf9 membrane polyspecificity reagent, FACS + sequencing; frameworks hold sequencing errors
assay_metric: polyreactivity (PSR sort gate)

1) QVQLVESGGGLVQAGGRLRISCAASGAIFGEYPMGWYSQAPGKERELVADITTGGNTNYADSVKGRFTITRDNAKNTVYVHMNSLKPEDTAVYYCIAYGNTYGYWWFGYWGQGTQVNVSS | low polyreactivity
2) QVQLVESGGGLVQAGGSLRLSCAASGGTFVTYAMGWYRQAPGKERELVAAITTGGSTYYADSVKGRFTISRDNAKNSVYLQMISLKPEDTAVYYCAAVYTGSGKRYYKGYYWGQGTQVTVSS | low polyreactivity
3) QVQLVESGGCLVQAGGTLRLSCAASGSILNSYALGWYRQAPGKERELVAAIDNRGGSTHYADSVKGRFTISRDNAKNTVYLQMNSLKPEDTAVYYCAKRFYGSVGYWRYYYWGQGTQVTVSS | low polyreactivity
4) QVQLVESGGGLVQAGGSLRLSCAASGRIFSYAMGWYRQAPGKERELVAGISRSGGSTYYADSVKGRFTISRDNAKNTVYLQMNSLKPEDTAVYYCAAVKIRTVYKYNYWGQGTQVTVSS | high polyreactivity

Shifting focus to the sequence that follows.
What value of polyreactivity (PSR sort gate) has been reported for the following sequence? "QVQLVESGGGLVQAGGSLRLSCAASGRIFKYNAMGWYRQAPGKERELVAAISSSGGSTYYADSVKGRFTISRDNAKNTVYLQMNSLKPEDTAVYYCAARYAPTLSVYRFYYWGQGTQVTVSS" high polyreactivity

* * *

Assay: yeast display, Sf9 membrane polyspecificity reagent, FACS + sequencing; frameworks hold sequencing errors
assay_metric: polyreactivity (PSR sort gate)

Observe how each entry below is paired with its result.
1. QVHLVESGGGLVQAGGSLRLSCAASGRISHYNAMGWNRQAPGKERELVAAISSRGGSTYYADSVKGRFTISRDNAKNTVYLQMNSLKPEDTAVYFCAVRYWHWGKKITYDYWGQGTQVTVSS | high polyreactivity
2. QVQLVESGGGLVQAGGSLRLSCAASGFTFFHYAMGWYIQAPGKERELVAAITRSGSSTYYADSVKGRFTISRDNAKNTVYLQMNSLKPEDTAVYYCAADYISRGGYTIEDYWGQGTQVTVSS | low polyreactivity
3. QVQLVESGGGLVQSGGSLRLSCAACGGTFYRYAMGWYRQAPGKERELVAAITSGSSTYYADSVKGRFTISRDNAKNTVYLQMNSLTPEDTAVYYCAAARYSRLSRTRPGKYGYWGQGTQVTVST | low polyreactivity
4. QVQLVESGGGLVQAGGSLRLSCAASGFTFKRYAMGWYRQAPGKERELVAAISWSGGSTYYADSVKGRFTISRDNAKNTVYLQMNSLKPEDTAVYYCAADGGSTEEYYYWGQGTQVTVST | high polyreactivity

Shifting focus to the sequence that follows.
What value of polyreactivity (PSR sort gate) has been reported for the following sequence? "QVQLVESGGGLVQAGGSLRLSCAASGSIIYYYAMGWYRQAPGKERELVAAIRGGGSTNYADSVKGRFTISRDNAKNTVYLQMNSLKPEDTAVYYCNADYRNDCGTPLWYAYNYWGQGTQVTVSS" low polyreactivity

* * *

Assay: yeast display, Sf9 membrane polyspecificity reagent, FACS + sequencing; frameworks hold sequencing errors
assay_metric: polyreactivity (PSR sort gate)

1) QVQLVESGGGLVQAGGSLRISSAASGIIFPWYYMGWYRQAPGKESELVAGITDGGDTTYADSVKWRFTISRDYAMNNVYLEMNRLKPEDTAVYYCAADIGYGYWHFDYLGQGTQVTVSS | low polyreactivity
2) QVQLVESGLGLVQAGGSLRLSCAASGRIFYLNDMGWYRQAPGIERELVADMTRSGGTTYYADSVKGRFTISRDNEKNTVYLQMNSLKPEETSVYYCAAESRFRYVYGVGYRPYLYGYWGQGTQVTVSS | low polyreactivity
3) QVQLVESGGGLVQAGGSLRLSCAASGFIIKGNVMGWYRQAPGKERELVAAITRRGSTYYADSVKGRFTISRDNAKNTVYLQMNSLKPEDTAVYYCAARPWKAIEKVDGSGGGDYWGQGTQVTVSS | low polyreactivity
4) QVQLVESGGGLVQAGGSLRLSCAASGSISRYYAMGWYRQAPGKERELVAAISSNGGSTYYADSVKGRFTISRDNAKNTVYLQMNSLKPEDTAVYYCNAYYVGYIRYWTNKLVDYWGQGTQVTVSS | high polyreactivity

Shifting focus to the sequence that follows.
What value of polyreactivity (PSR sort gate) has been reported for the following sequence? "QVQLVESGGGLVQAGGSLRLSCAASGSTFYAYTMGWYRQAPGKERELVAAITSSGSNTYYADSVKGRFTISRDNAKNTVYLQMNSLKPEDTAVYYCAARITREGYYWGQGTQVTVSS" high polyreactivity

* * *

Assay: yeast display, Sf9 membrane polyspecificity reagent, FACS + sequencing; frameworks hold sequencing errors
assay_metric: polyreactivity (PSR sort gate)

Observe how each entry below is paired with its result.
1. QVQLVESGGGLVQAGGSLRLSCAASGSIFTWYAMGWYRQAPGKERELVAAITTSGGSTYYADSVKGRFTISRDNAKNTVYLQMNSLKPEDTAVYYCAKDGDYLFYYYGYDYWGQGTQVTVSS | low polyreactivity
2. QVQLVESGGGLVKAGGILRLSCAASGFNFSSYAMGWYIPAPGKERELVAAISGSGGTTYYADSVKGRFTISRDNAKNTVYLQLNSLKPEDTAVYYCATRLGLVITKYGYDYWGQGTQVTVSS | high polyreactivity
3. QVQLVESGGGLVQAGGSLRLSCAASGITFSRNAMGWYRQAPGKERELVATITSGGSTNYADSVKGRFTISRDNAQNTVYLQMNSLKPEDTAVYYCNAVWNTFISGRSYDYWGQGTQVTVSS | low polyreactivity
4. QVQLVESGGGLVQAGGSLRLSCAASGSIFRGNAMGWYRQAPGKERELVAAISSRGGSTYYADSVKGRFTISRDNAKNTVYLQMNSLKPEDTAVYYCGAVRYKYWGVQRSYSWGQGTKVTVSS | high polyreactivity

Shifting focus to the sequence that follows.
What value of polyreactivity (PSR sort gate) has been reported for the following sequence? "QVQLVESGGALVQAGGSLRLSCAASGISFSWYAMGWYRQAPGKEREFVAAISRGGTSTYYADSVKGRLTISRDNAKNTVYLQMNSLKPEDTAVSYCAVQWLYPYDYWGQGTQVTVSS" high polyreactivity

* * *

Experiment: yeast display, Sf9 membrane polyspecificity reagent, FACS + sequencing; frameworks hold sequencing errors
assay_metric: polyreactivity (PSR sort gate)

1. QVQLVESGGGLVQAGGSLRLSCAASGSIFQRTAMGWYRQAPGNERELVASINSGGSTNYADSVKGRFTISRDNAKNTVYLQMNSLKPEDTAVYYCAAVRPWWRNKPQWPRYDYWGLGTQVTVSS | low polyreactivity
2. QVQLVESGGGLVQAGGSLRLSCAASGRTFDLNGMGWYRQAPGKERELVAAITRGGSTNYADSVKGRFTISRDNAKNTVYLQMNSLKPEDTAVYYCAADSSFWYYDRYDYWGQGTQVTVSS | low polyreactivity
3. QVQLVESGGGLVQAGGSLRLSCAASGFTFNNNAMGWYRQAPGKERELVAAITSSGGSTRYADSVKGRFTISRDNAKNTVYLQMNSLKPEDTAVYYCNAARQRKYSNWYDYWGQGTQVTVSS | high polyreactivity
4. QVQLVESGGGLVQAGGSLRLSCAASGRTFHDYAMGWYRQAPGKERELVASISSGGSTYYADSVKGRFTISRDNAKNTVYLQMNSLKPEDTAVYYCAAYYYSTLYYRYDYWGQGTQVTVSS | low polyreactivity
5. QVQLVESGGGLVQAGGSLRISCAASGNTFTRNTMGWYRQAPGKERELVASISLSGASTYYADSVKGRFTISRDNAKNTVYLQMNSLKPEDTAVYYCAARSRQDLEYDYWGQGTQVTVSS | high polyreactivity

Can you give me polyreactivity (PSR sort gate) for all of these, one by one?
1. QVQLVESGGVLVQAGGSLRLSCAASGRTLRSYAMGWYRHAPGKERELVAAISRSGGSTYYADSVKGRFTISRDNAKNTVYLQMNSLKPEDTAVYYCATRYLGRLDYWGQGTQVTVSS
2. QVQLVESGGGLVQAGGSLRLSCAASGLTFDVYTMGWYRQAPGKEREFVAGITSGGSTDYADSVKGRFTISRDNAKNTVYLQMNSLKPEDTAVYYCNKPFPYYPDGPNGYDYWGQGTQVTVSS
3. QVQLVESGGGLVQAGGSLRLSCAASGIIFNSYAMGWYRQAPGKERELVAAITRAGRTYYADSVKGRFPISRDNAKNTVDLQMNSLKPEDTAVYYCAAAFLSRVQGYDSWGQGTQVTVSS

1. high polyreactivity
2. low polyreactivity
3. high polyreactivity

Can you give me polyreactivity (PSR sort gate) for all of these, one by one?
1. QVQLVESGVGLVQAGGSLRLSCAASGRIFTSNAMGWYRQAPGKERELVAAIHRGGSTYYADSVKGRFTISRDNAKNTVYLQMNSLKPEDTAVYYCNAYRKSARSGGHYDYWGQGTQVTVSS
2. QVQLVESGGGLVQAGGSLRLSCDASGITFVRYTIRWYRQAPGKEREFVAGITRGGSTYYADSVKGRFTISPDNAKNNVFLQRNSLKPEDTAVYYCAARPRFLRASVEYDYWGQGTQVTVSS

["low polyreactivity", "high polyreactivity"]

What value of polyreactivity (PSR sort gate) has been reported for the following sequence? "QVQLVESGGGLVQAGGSLPLSCAASGSIYGANAQGWYRQAPGKERELVAAISSNGDDTYADSVKGRFTISRDNAKNTVYIQMNSLKPEDTAVYYCNKRPWWWGGDDYGGQGTQVTVSS" low polyreactivity
